Each entry below carries its reported Kd.
- system: T1, human C5 R885H-mmh (human, UniProt P01031 19-1676)
- T1 construct: also called human C5 variant R885H
- test.name: SPR, mAb captured via anti-hFc, 37C
Unit nM implied. Number only.

binder="H4H12169P (antibody, human IgG4, V domains shown, Human IgG4 Fc with S108P hinge mutation (H4H)) VH: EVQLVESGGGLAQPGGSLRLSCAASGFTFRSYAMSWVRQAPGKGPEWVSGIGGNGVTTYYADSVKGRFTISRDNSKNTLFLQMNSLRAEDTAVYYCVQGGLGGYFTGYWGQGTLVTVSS VL: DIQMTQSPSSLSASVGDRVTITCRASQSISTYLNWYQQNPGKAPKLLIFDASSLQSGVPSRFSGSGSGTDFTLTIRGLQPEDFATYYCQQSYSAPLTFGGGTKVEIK" result_units=nM measured_value=1.72
binder="H4H12159P (antibody, human IgG4, V domains shown, Human IgG4 Fc with S108P hinge mutation (H4H)) VH: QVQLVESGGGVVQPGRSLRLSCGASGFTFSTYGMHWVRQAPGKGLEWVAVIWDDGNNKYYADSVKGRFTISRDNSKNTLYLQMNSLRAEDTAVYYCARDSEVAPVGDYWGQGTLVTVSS VL: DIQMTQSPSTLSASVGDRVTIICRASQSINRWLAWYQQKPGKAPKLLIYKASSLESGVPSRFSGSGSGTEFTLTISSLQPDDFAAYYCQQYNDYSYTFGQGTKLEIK" result_units=nM measured_value=1.49
binder="H4H12164P (antibody, human IgG4, V domains shown, Human IgG4 Fc with S108P hinge mutation (H4H)) VH: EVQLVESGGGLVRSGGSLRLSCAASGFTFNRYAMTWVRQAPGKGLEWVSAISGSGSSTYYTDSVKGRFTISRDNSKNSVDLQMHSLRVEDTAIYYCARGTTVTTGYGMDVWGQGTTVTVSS VL: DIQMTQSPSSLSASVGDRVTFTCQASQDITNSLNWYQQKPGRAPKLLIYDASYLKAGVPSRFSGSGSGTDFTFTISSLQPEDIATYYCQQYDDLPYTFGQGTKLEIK" result_units=nM measured_value=5.46
binder="H4H12171P (antibody, human IgG4, V domains shown, Human IgG4 Fc with S108P hinge mutation (H4H)) VH: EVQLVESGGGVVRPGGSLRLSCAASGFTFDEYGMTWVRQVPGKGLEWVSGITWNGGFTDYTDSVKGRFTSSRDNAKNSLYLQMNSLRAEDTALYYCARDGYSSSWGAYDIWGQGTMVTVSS VL: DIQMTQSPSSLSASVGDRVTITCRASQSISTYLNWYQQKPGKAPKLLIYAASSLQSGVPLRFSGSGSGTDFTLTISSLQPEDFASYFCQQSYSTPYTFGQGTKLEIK" result_units=nM measured_value=1.63
binder="H4H11686N (antibody, V domains shown, also called H2M11686N) VH: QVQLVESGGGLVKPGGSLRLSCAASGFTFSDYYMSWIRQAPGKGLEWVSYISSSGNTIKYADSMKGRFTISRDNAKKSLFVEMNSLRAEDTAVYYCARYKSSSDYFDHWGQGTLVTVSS VL: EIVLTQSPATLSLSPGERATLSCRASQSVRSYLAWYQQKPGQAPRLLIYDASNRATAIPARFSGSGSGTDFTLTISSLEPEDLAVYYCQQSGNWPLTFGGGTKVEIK" result_units=nM measured_value=1.91

Which Kd is reported for this binder? H4H12161P (antibody, human IgG4, V domains shown, Human IgG4 Fc with S108P hinge mutation (H4H)) VH: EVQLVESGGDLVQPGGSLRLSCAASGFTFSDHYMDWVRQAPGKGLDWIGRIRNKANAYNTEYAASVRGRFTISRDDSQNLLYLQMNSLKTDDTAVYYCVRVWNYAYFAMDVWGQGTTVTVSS VL: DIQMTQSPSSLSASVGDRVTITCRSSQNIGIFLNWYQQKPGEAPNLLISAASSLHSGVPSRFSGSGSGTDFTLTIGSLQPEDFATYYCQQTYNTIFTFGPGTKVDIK
7.84

Please answer likewise for H4H12170P (antibody, human IgG4, V domains shown, Human IgG4 Fc with S108P hinge mutation (H4H)) VH: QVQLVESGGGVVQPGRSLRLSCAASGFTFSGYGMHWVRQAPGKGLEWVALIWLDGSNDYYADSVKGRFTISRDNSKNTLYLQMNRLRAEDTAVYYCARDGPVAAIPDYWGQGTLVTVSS VL: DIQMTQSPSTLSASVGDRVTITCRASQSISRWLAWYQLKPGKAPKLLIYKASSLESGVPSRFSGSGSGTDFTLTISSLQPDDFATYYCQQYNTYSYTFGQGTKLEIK
1.5
